target: human D2 receptors (Homo sapiens (Human), UniProt P14416); assay: D2 Mitogenesis Functional Assay (3H-thymidine uptake, CHOp-D2 cells); assay type: cell-based; settings: at 10 μM; % maximum stimulation vs quinpirole (100%); read-out: D2 Agonist Emax
Sequence (P14416 whole entry): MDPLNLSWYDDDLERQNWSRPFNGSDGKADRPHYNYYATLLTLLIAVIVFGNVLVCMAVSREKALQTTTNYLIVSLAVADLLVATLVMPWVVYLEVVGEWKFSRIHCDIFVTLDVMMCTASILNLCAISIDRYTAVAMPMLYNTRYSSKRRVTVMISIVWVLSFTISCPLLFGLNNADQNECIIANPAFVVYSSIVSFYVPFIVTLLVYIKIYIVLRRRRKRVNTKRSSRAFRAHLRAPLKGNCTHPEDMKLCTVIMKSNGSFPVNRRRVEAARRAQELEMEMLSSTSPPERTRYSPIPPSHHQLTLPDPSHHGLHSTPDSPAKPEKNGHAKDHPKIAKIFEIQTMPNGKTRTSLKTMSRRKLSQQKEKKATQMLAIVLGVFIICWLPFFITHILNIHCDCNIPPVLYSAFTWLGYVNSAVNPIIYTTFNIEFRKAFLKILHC
value-type: Emax at 10 µM

Please review the following examples before continuing.
{"compound": "CC(C)(C)c1nc(N2CCN(CCCCNC(=O)N3CCN(c4ccccc4)CC3)CC2)cc(C(F)(F)F)n1", "system": "human D2 receptors (Homo sapiens (Human), UniProt P14416)", "val": "< 1%"}
{"compound": "CC(C)(C)c1nc(N2CCN(CCCCNC(=O)c3cn4ccncc4n3)CC2)cc(C(F)(F)F)n1", "system": "human D2 receptors (Homo sapiens (Human), UniProt P14416)", "val": "< 20%"}
{"compound": "CC(C)(C)c1nc(N2CCN(CCCCNC(=O)N3CCN(c4ncccn4)CC3)CC2)cc(C(F)(F)F)n1", "system": "human D2 receptors (Homo sapiens (Human), UniProt P14416)", "val": "< 1%"}

API: the following record is the query input.
Exam item: If you can, please state the reported Emax at 10 µM value of CC(C)(C)c1nc(N2CCN(CCCCNC(=O)c3cn4nc(Cl)ccc4n3)CC2)cc(C(F)(F)F)n1 .
Marked response: < 1%
